Listing of recorded IC50 by entry.
# MEASURED ON: indoleamine 2,3-dioxygenase (IDO) (Homo sapiens, UniProt P14902)
# Construct: replaced with media containing IFNγ (#285-IF/CF, R&D Systems) at a final concentration of 25 ng/mL; endogenous in cells; host or cells: HeLa (ATCC CCL-2), IFN-gamma stimulated
# Sequence (P14902 whole entry): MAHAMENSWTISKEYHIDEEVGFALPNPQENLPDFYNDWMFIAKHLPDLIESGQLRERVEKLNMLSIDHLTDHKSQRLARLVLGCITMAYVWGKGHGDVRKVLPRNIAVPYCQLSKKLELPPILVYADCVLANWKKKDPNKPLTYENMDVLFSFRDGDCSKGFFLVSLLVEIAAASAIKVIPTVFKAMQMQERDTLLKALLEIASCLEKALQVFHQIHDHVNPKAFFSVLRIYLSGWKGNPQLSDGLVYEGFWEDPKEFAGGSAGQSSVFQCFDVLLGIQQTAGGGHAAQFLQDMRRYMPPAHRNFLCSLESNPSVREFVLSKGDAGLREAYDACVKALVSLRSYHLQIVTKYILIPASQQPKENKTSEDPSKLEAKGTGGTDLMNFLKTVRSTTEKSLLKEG
# METHOD: HeLa cell-based indoleamine 2,3-dioxygenase (IDO) assay, kynurenine production
# EXPERIMENTAL CONTEXT: HeLa cells, IFNγ 25 ng/mL, 48 hour incubation; read-out: IDO Hela IC50

- COMPOUND: "CCO[C@@H](c1ccc([C@H](CC)CC(=O)O)cc1Nc1cnc(C)nc1)C(F)(F)F (single isomer, unassigned)"
  IC50 [µM]: 0.1
- COMPOUND: "CC[C@H](CC(=O)O)c1ccc([C@@H](CC)N2CCOCC2)c(Nc2cnc(C)nc2)c1 (relative stereo)"
  IC50 [µM]: 0.08
- COMPOUND: "CCOc1ncc(Nc2cc([C@@H](COC)CC(=O)O)ccc2[C@H](CC)N2CCOCC2)cn1 (single isomer, unassigned)"
  IC50 [µM]: 0.2
